Record form. Attribute: viscosity. Fill in for each entry.
# Experiment notes: xn = mol fraction of the nth substance listed
# Test settings: 298.15 K; 103 kPa; x1 = 0.1
Quick note: give the figure in mPa·s, leave out the unit.

Request: Need viscosity, item C[Si]1(C)O[Si](C)(C)O[Si](C)(C)O[Si](C)(C)O1 + CCCCCCCCCC
Result: 0.867

Request: Okay, and C[Si]1(C)O[Si](C)(C)O[Si](C)(C)O[Si](C)(C)O1 + CCCCCCCCCCCCCC ?
Result: 1.905

Request: Okay, and C[Si]1(C)O[Si](C)(C)O[Si](C)(C)O[Si](C)(C)O1 + CCCCCCCCCCCCC ?
Result: 1.61

Request: Okay, and C[Si]1(C)O[Si](C)(C)O[Si](C)(C)O[Si](C)(C)O1 + CCCCCCCCCCCC ?
Result: 1.32

Measured values drawn from the CheMixHub viscosity set for this set.
